# Assay Text: Comparative single dose toxicokinetic study in dogs, 30 minutes intravenous infusion
# Type: in vivo, beagle dogs
# Condition: both sexes, beagle, dog, plasma, iv, 1.25 mg/kg, mean, plasma, labelled analyte; group 2: melflufen-d5 (III) 1.25 mg/kg 30 min infusion; M + F combined
Where a name gives a salt, the structure may show the parent alone.
Quantity: Tmax (min)
Give the value, in units of min, as a plain number.

Exam item: Would you kindly share the measured Tmax for N[C@@H](Cc1ccc(N(CCCl)CCCl)cc1)C(=O)O ?
Marked response: 31.7

Exam item: Would you kindly share the measured Tmax for N[C@@H](Cc1ccc(N(CCCl)CCCl)cc1)C(=O)N[C@@H](Cc1ccc(F)cc1)C(=O)O ?
Marked response: 30

Exam item: Would you kindly share the measured Tmax for [2H]C([2H])([2H])C([2H])([2H])OC(=O)C(Cc1ccc(F)cc1)NC(=O)C(N)Cc1ccc(N(CCCl)CCCl)cc1 (stereo not drawn) [melflufen-d5 (III), hydrochloride] ?
Marked response: 22.5

Just for reference, patent US12152087B2 is where these values come from.
